TARGET ENTITY: T1, rhNav1.7α + β1-β2-β3 (rhesus monkey)
T1 construct: also called rhNav1.7-beta1-beta2-beta3; rhNav1.7-β1-β2-β3
MEASUREMENT DESCRIPTION: binding FACS, CHO FlpIn
Give EC50 for every item shown.
Quick note: give the figure in nM, leave out the unit.

Write down EC50 measured for item F010302343 (VHH) VHH: EVQLVESGGGVVQPGGSLRLSCAASSRQFIRDVFTGWYRQAPGKQRELVARIYESGNTQYADSAKGRFTISRDNAKKTVYLQMNSLRPEDTALYYCLFSGTISTGREYRSGDYWGQGTLVTVSS
18

Write down EC50 measured for item F010302350 (VHH) VHH: EVQLVESGGGVVQPGGSLRLSCAASSRQFIRDVFTGWYRRAPGKQRELVARIYNEGNTQYADSVKGRFTISRDNAKKTVYLQMNSLRPEDTALYYCLFSGTISTGREYRSGDYWGQGTLVTVSS
15

Write down EC50 measured for item F010302356 (VHH) VHH: EVQLVESGGGVVQPGGSLRLSCAASHRAFIRDLFTGWYRRAPGKQRELVARIYESGNTNYADSVKGRFTISRDNAKKTVYLQMNSLRPEDTALYYCLFSGTISTGREYRSGDYWGQGTLVTVSS
12

Write down EC50 measured for item F010301932 (VHH, also called F0103464B09(L11V, K83R, V89L)) VHH: EVQLVESGGGVVQPGGSLRLSCATTSRAFIRDVFTGWYRRVPGKERELVARIYNGGNTNYADFAKGRFSISRDNAKKMVTLRMSNLRPEDTGLYYCLFSGTINTGREYRSGDYWGQGTLVTVSS
17
